- Assayed system: Cholinesterase (Homo sapiens)
- Protocol description: Inhibition of human serum BuChE using butyrylthiocholine iodide as substrate preincubated for 20 mins prior to substrate addition by Ellman's method
Documented pIC50 across a set of molecules
pIC50 here is simply -log10 of the concentration when that concentration is written in mol/L.

Some solved entries appear below for comparison.
Cc1cccc(C(=O)c2c(-c3cccc(OCCCCCCCN(C)Cc4ccccc4)c3)oc3ccccc23)c1: 6.40
CN(CCCCCCCCCOc1ccc(-c2cc3ccccc3o2)cc1)Cc1ccccc1: 4.25
COc1cccc(C(=O)c2c(-c3cccc(OCCCCCCCN(C)Cc4ccccc4)c3)oc3ccccc23)c1OC: 5.52
CCN(CC)Cc1ccc(C(=O)c2c(-c3ccc(OCCCCCCCN(C)Cc4ccccc4)cc3)oc3ccccc23)cc1: 5.03

Request: Tell me reported pIC50 for CN(CCCCCCCOc1ccc(-c2oc3ccccc3c2C(=O)c2cccc3ccccc23)cc1)Cc1ccccc1 , tested with Cholinesterase (Homo sapiens).
Response: 4.22

###

- Protocol description: Inhibition of amyloid beta (25 to 35) fibril formation at 10 uM incubated up to 6 hrs by UV-Vis spectrophotometric analysis
Calls of active or inactive are those of the source. The calls are words filed in the database; no cut-off is given here.
Property name: inhibition

Some solved entries appear below for comparison.
CCN(CC)Cc1ccc(C(=O)c2c(-c3ccc(OCCCCCCCN(C)Cc4ccccc4)cc3)oc3ccccc23)cc1: Active
CCN(CC)Cc1cccc(C(=O)c2c(-c3ccc(OCCCCCCCN(C)Cc4ccccc4)cc3)oc3ccccc23)c1: Active
CN(CCCCCCCCOc1ccc(-c2cc3ccccc3o2)cc1)Cc1ccccc1: Active
CN(CCCCCCCOc1cccc(-c2cc3ccccc3o2)c1)Cc1ccccc1: 81%

Request: Tell me the measured inhibition of CN(CCCOc1ccc(-c2cc3ccccc3o2)cc1)Cc1ccccc1 , please.
Response: Active

Request: Tell me the measured inhibition of CN(CCCCCOc1ccc(-c2cc3ccccc3o2)cc1)Cc1ccccc1 , please.
Response: Active

Request: Tell me the measured inhibition of CN(CCCCCCCOc1ccc(-c2oc3ccccc3c2C(=O)c2ccccc2)cc1)Cc1ccccc1 , please.
Response: 47%

Request: Tell me the measured inhibition of Cc1cccc(C(=O)c2c(-c3cccc(OCCCCCCCN(C)Cc4ccccc4)c3)oc3ccccc23)c1 , please.
Response: 48%

Request: Tell me the measured inhibition of CCN(CC)CCOc1cccc(C(=O)c2c(-c3ccc(OCCCCCCCN(C)Cc4ccccc4)cc3)oc3ccccc23)c1 , please.
Response: Active

###

- Assayed system: Cannabinoid receptor 1 (Homo sapiens, UniProt P21554)
- Sequence (P21554 whole entry): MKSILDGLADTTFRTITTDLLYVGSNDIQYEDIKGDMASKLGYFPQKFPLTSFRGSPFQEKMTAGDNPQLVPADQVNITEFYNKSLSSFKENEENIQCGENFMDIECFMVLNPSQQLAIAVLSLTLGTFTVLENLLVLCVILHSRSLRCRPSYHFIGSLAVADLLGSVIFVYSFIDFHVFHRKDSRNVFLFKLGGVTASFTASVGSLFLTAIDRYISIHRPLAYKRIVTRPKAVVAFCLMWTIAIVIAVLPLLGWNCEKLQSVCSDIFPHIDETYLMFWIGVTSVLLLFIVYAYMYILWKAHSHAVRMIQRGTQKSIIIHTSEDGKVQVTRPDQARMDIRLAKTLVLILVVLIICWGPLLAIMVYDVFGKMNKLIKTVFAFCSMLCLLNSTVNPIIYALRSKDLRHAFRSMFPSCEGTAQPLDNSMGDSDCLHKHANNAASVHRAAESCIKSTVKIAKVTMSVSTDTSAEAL
- Protocol description: Displacement of [3H]CP-55940 from human recombinant CB1 receptor expressed in HEK293 cells after 90 mins
pKi: −log10 of the molar value.
Documented pKi across a set of compounds

Some solved entries appear below for comparison.
CN(CCCCCCCOc1ccc(-c2oc3ccccc3c2C(=O)c2ccc(OCCN3CCOCC3)cc2)cc1)Cc1ccccc1: 6.26
CCN(CC)Cc1cccc(C(=O)c2c(-c3ccc(OCCCCCCCN(C)Cc4ccccc4)cc3)oc3ccccc23)c1: < 5.00
CCN(CC)CCOc1cccc(C(=O)c2c(-c3ccc(OCCCCCCCN(C)Cc4ccccc4)cc3)oc3ccccc23)c1: 5.59
CN(CCCCCCCOc1ccc(-c2oc3ccccc3c2C(=O)c2cccc3ccccc23)cc1)Cc1ccccc1: < 5.00
CN(CCCCCCCOc1ccc(-c2oc3ccccc3c2C(=O)c2c3ccccc3cc3ccccc23)cc1)Cc1ccccc1: < 5.00

Request: Tell me the measured pKi of CCN(CC)CCOc1ccc(C(=O)c2c(-c3ccc(OCCCCCCCN(C)Cc4ccccc4)cc3)oc3ccccc23)cc1 , please.
Response: < 5.00

Request: Tell me the measured pKi of CN(CCCCCCCOc1ccc(-c2oc3ccccc3c2C(=O)c2ccccc2)cc1)Cc1ccccc1 , please.
Response: 6.49

Request: Tell me the measured pKi of CN(CCCCCCCOc1ccc(-c2oc3ccccc3c2C(=O)c2ccc3ccccc3c2)cc1)Cc1ccccc1 , please.
Response: < 5.00

###

- Assayed system: Cannabinoid receptor 2 (Homo sapiens)
- Sequence (P34972 whole entry): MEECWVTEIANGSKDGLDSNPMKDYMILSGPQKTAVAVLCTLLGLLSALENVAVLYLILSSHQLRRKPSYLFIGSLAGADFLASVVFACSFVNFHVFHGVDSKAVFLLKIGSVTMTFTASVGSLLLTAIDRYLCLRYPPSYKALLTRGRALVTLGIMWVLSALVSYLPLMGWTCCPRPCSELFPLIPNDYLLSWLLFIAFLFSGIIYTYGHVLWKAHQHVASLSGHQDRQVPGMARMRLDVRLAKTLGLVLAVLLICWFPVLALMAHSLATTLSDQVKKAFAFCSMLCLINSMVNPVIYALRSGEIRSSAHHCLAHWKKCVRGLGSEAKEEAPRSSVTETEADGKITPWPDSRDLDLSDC
- Protocol description: Displacement of [3H]CP-55940 from human recombinant CB2 receptor expressed in HEK293 cells after 90 mins
- Format: cell-based
The source made the active and inactive calls. No cut-off for these calls is given here.
Property name: Activity

Some solved entries appear below for comparison.
COc1ccccc1C(=O)c1c(-c2cccc(OCCCCCCCN(C)Cc3ccccc3)c2)oc2ccccc12: inactive
Cc1ccc(C(=O)c2c(-c3cccc(OCCCCCCCN(C)Cc4ccccc4)c3)oc3ccccc23)cc1: inactive
COc1cc(OC)cc(C(=O)c2c(-c3cccc(OCCCCCCCN(C)Cc4ccccc4)c3)oc3ccccc23)c1: inactive
COc1ccc(C(=O)c2c(-c3cccc(OCCCCCCCN(C)Cc4ccccc4)c3)oc3ccccc23)cc1OC: inactive
Cc1cccc(C(=O)c2c(-c3cccc(OCCCCCCCN(C)Cc4ccccc4)c3)oc3ccccc23)c1: inactive

Request: Tell me the measured Activity of COc1cccc(C(=O)c2c(-c3cccc(OCCCCCCCN(C)Cc4ccccc4)c3)oc3ccccc23)c1OC , please.
Response: inactive

Request: Tell me the measured Activity of COc1cccc(C(=O)c2c(-c3cccc(OCCCCCCCN(C)Cc4ccccc4)c3)oc3ccccc23)c1 , please.
Response: inactive

Request: Tell me the measured Activity of CN(CCCCCCCOc1cccc(-c2oc3ccccc3c2C(=O)c2ccccc2)c1)Cc1ccccc1 , please.
Response: inactive

###

- Assayed system: Cholinesterase (Homo sapiens, UniProt P06276)
- Sequence (P06276 whole entry): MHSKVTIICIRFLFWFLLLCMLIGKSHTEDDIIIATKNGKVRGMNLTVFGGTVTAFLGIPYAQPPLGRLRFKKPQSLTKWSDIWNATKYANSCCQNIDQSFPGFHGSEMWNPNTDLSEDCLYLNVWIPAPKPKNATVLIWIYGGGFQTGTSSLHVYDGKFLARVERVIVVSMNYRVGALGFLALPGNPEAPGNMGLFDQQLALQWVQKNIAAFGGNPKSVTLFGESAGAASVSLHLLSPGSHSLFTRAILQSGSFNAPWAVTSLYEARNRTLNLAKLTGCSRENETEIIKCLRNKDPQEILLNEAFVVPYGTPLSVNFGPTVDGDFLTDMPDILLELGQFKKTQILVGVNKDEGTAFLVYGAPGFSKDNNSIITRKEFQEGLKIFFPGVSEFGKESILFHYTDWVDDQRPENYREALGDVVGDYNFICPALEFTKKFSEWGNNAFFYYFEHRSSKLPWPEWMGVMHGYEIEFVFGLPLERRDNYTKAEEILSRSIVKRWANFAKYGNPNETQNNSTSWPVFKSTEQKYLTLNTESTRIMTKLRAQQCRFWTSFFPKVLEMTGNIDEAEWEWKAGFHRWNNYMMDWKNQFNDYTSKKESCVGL
- Protocol description: Inhibition of human serum BuChE using butyrylthiocholine iodide as substrate preincubated for 20 mins prior to substrate addition by Ellman's method
Documented pIC50 across a set of compounds
pIC50 here is simply -log10 of the concentration when that concentration is written in mol/L.

COc1cccc(C(=O)c2c(-c3cccc(OCCCCCCCN(C)Cc4ccccc4)c3)oc3ccccc23)c1: 5.86
CCN(CC)CCOc1ccc(C(=O)c2c(-c3ccc(OCCCCCCCN(C)Cc4ccccc4)cc3)oc3ccccc23)cc1: 4.64
CN(CCCCCCCCOc1ccc(-c2cc3ccccc3o2)cc1)Cc1ccccc1: 5.13
CN(CCCCCCCOc1cccc(-c2cc3ccccc3o2)c1)Cc1ccccc1: 5.52
CCN(CC)Cc1cccc(C(=O)c2c(-c3ccc(OCCCCCCCN(C)Cc4ccccc4)cc3)oc3ccccc23)c1: 5.50
Cc1ccc(C(=O)c2c(-c3cccc(OCCCCCCCN(C)Cc4ccccc4)c3)oc3ccccc23)cc1: 4.36
COc1ccc(C(=O)c2c(-c3cccc(OCCCCCCCN(C)Cc4ccccc4)c3)oc3ccccc23)cc1OC: 5.60
CN(CCCCCCCOc1ccc(-c2oc3ccccc3c2C(=O)c2ccc(OCCN3CCOCC3)cc2)cc1)Cc1ccccc1: 4.68
COc1ccccc1C(=O)c1c(-c2cccc(OCCCCCCCN(C)Cc3ccccc3)c2)oc2ccccc12: 5.71
CCN(CC)CCOc1cccc(C(=O)c2c(-c3ccc(OCCCCCCCN(C)Cc4ccccc4)cc3)oc3ccccc23)c1: 5.74

Request: Tell me the measured pIC50 of COc1cc(OC)cc(C(=O)c2c(-c3cccc(OCCCCCCCN(C)Cc4ccccc4)c3)oc3ccccc23)c1 , please.
Response: 7.32

Request: Tell me the measured pIC50 of CNC(=O)Oc1cccc(CN(C)CCCCCCCOc2ccc(-c3oc4ccccc4c3C(=O)c3ccc(C)cc3)cc2)c1 , please.
Response: 6.06

Request: Tell me the measured pIC50 of CN(CCCCCCCOc1cccc(-c2oc3ccccc3c2C(=O)c2ccccc2)c1)Cc1ccccc1 , please.
Response: 5.54

###

- Protocol description: Inhibition of amyloid beta (25 to 35) fibril formation incubated up to 6 hrs by UV-Vis spectrophotometric analysis
Property name: pIC50
pIC50 here is simply -log10 of the concentration when that concentration is written in mol/L.

CN(CCCCCCCCCOc1ccc(-c2cc3ccccc3o2)cc1)Cc1ccccc1: 5.26
COc1cc(/C=C/C(=O)CC(=O)/C=C/c2ccc(O)c(OC)c2)ccc1O: 5.00
CN(CCCCCCCOc1ccc(-c2oc3ccccc3c2C(=O)c2ccccc2)cc1)Cc1ccccc1: 4.90

Turning to the following molecule.
Request: Tell me the measured pIC50 of CN(CCCCCCCOc1cccc(-c2cc3ccccc3o2)c1)Cc1ccccc1 , please.
Response: 5.41

###

- Assayed system: Cannabinoid receptor 2 (Homo sapiens)
- Protocol description: Displacement of [3H]CP-55940 from human recombinant CB2 receptor expressed in HEK293 cells after 90 mins
Property name: pKi
pKi here is simply -log10 of the concentration when that concentration is written in mol/L.

CCN(CC)Cc1ccc(C(=O)c2c(-c3ccc(OCCCCCCCN(C)Cc4ccccc4)cc3)oc3ccccc23)cc1: 5.95
CCN(CC)CCOc1cccc(C(=O)c2c(-c3ccc(OCCCCCCCN(C)Cc4ccccc4)cc3)oc3ccccc23)c1: 6.16
CCN(CC)CCOc1ccc(C(=O)c2c(-c3ccc(OCCCCCCCN(C)Cc4ccccc4)cc3)oc3ccccc23)cc1: 5.93
CN(CCCCCCCOc1ccc(-c2oc3ccccc3c2C(=O)c2ccc(OCCN3CCOCC3)cc2)cc1)Cc1ccccc1: 6.24

Turning to the following compound.
Request: Tell me the measured pKi of CN(CCCCCCCOc1ccc(-c2oc3ccccc3c2C(=O)c2ccc(-c3ccccc3)cc2)cc1)Cc1ccccc1 , please.
Response: 5.75
